All values here come from PubChem BioAssay AID1345083.

# assay.text: Cytotoxic Profiling in HEK 293 Cell Line of Diverse Libraries Using Quantitative High-Throughput Screening; note: nearly all actives have a fitted effect of over 60% in size
# condition.details: HEK 293 viability, ATP luminescence (CellTiter-Glo), 48-72 h; series mostly up to 115 µM
In all, about 94,000 compounds went through this assay and about 6,200 (6.6%) were called active. About 31% were inconclusive and are not listed. Calls come from the whole dose curve; as a rule, active = well fitted inhibition curve with a large enough effect; inconclusive = small, poorly fitted or top-dose-only effect; inactive = flat fitted curve, though single readings scatter. The list comes from a sample in which actives are over-represented; it also holds close analogues and randomly drawn compounds.
One label from this list, please: 1 = active, -1 = inactive

Qu. # fetch the recorded call for Cc1noc(C)c1S(=O)(=O)N1CCCC(c2nn[nH]n2)C1 (stereo not given) here
Ans. -1

Qu. # fetch the recorded call for CCc1nc2c(c(-c3ccc(OC)cc3)n1)CCN(CC1CCCCC1)CC2 here
Ans. -1

Qu. Just curious, what result did CCOc1ccc(-c2cc3c(=O)n(CCNC(=O)c4ccc(OC)cc4C)ccn3n2)cc1 get here?
Ans. -1

Qu. Record lookup: outcome of this test for Cc1noc(C)c1[S+](=O)([O-])N(C)Cc1cccn1C ?
Ans. -1

Qu. Each compound tested received a call. Report the one for COc1ccccc1N1CCN(C(=O)C2CCCN(C(=O)c3ccccc3)CCC(=O)NCC2)CC1 (stereo not given) .
Ans. -1

Qu. Recorded call for CCn1cc(S(=O)(=O)N2C[C@@H](Oc3ccccc3)C[C@@H]2C(=O)N2CCOCC2)cn1 ?
Ans. -1

Qu. Please share the test call associated with O=C(NCCc1ccccc1)N1CCCCCC1CN1CCOCC1 (stereo not given) .
Ans. -1

Qu. Per the assay record, what outcome was assigned to COc1ccc(C(=O)N2CCCN(C(=O)C3CC3)C(c3ccccc3)CC(=O)NCC2)cn1 (stereo not given) ?
Ans. -1

Qu. Test call for this compound, please: C=CCNC(=O)C(NC(=O)c1cccc(OC)c1)C1CCN(C(=O)c2ccccc2F)CC1 (stereo not given)
Ans. -1

Qu. Hi, do you know how CCC(C(=O)NCCn1ccn2nc(-c3ccc(F)cc3)cc2c1=O)c1ccccc1 (stereo not given) came out in this test?
Ans. 1

---

# assay.text: Cytotoxic Profiling in HEK 293 Cell Line of Diverse Libraries Using Quantitative High-Throughput Screening; note: nearly all actives have a fitted effect of over 60% in size
# condition.details: HEK 293 viability, ATP luminescence (CellTiter-Glo), 48-72 h; series mostly up to 115 µM
Out of some 94,000 compounds screened, about 6,200 (6.6%) were called active. About 31% were inconclusive and are not listed. The call rests on the fitted dose curve; in most records, active means well fitted inhibition curve with a large enough effect; inconclusive means small, poorly fitted or top-dose-only effect; inactive means flat fitted curve, though single readings scatter. For the sample, actives were picked, then their nearest neighbours and some compounds at random.
Your answer must be one of the following: active, inactive

Qu. // param item: COc1ccccc1CN1C(=O)COC[C@@H]1[C@H](O)c1ccc(NC(=O)c2ccc(C#N)cc2)cc1 ; yields the recorded call
Ans. active

Qu. For this molecule, state the assay outcome: CC(C)(C)CC(=O)Nc1ccc2c(N3CCOCC3)ncnc2c1
Ans. inactive

Qu. Tell me the recorded outcome of this test for COCCNC(=O)CC[C@]12CC[C@](C)(O)C[C@H]1C(C)(C)C[C@@H]2NC(=O)c1ccco1 .
Ans. inactive

Qu. Identify the outcome logged in this assay for the molecule shown: Cc1ccc(Cl)cc1NC(=O)N1C[C@@H](F)C[C@H]1C(=O)N1CCCCC1
Ans. inactive

Qu. For this molecule, state the assay outcome: CC(=O)N1CCN(C(=O)C2(Cn3cccn3)CC2)CC(O)C1 (stereo not given)
Ans. inactive

Qu. Dear colleague, could you share the recorded outcome for Cc1ncsc1C1N(C2CCN(C(=O)C3CC3)CC2)C(=O)C12CCCC2 (stereo not given) when you have a moment?
Ans. inactive

Qu. Record lookup: outcome of this test for COCCNC(=O)[C@@H]1C[C@H](Oc2ccccc2)CN1C(=O)C1(c2ccccc2)CC1 ?
Ans. inactive

Qu. Status in this test for CCCS(=O)(=O)N1CCC(Nc2nccnc2OCC)CC1 ?
Ans. inactive

Qu. For this molecule, state the assay outcome: COc1cccc(S(=O)(=O)N2CCC(n3cnnc3C3CC3)CC2)c1
Ans. inactive

Qu. Fill in: this test's call for Cc1cccc2c(C3CCN(S(=O)(=O)c4cc(Cl)cc(Cl)c4)CC3)c[nH]c12 is ___
Ans. active

Qu. GET /call?item= COc1cc(NC(=O)C2Cn3cccc3C(=O)N2)cc(OC)c1 (stereo not given) returns the recorded outcome of this test.
Ans. inactive

Qu. // param item: CNC(=O)c1cc[nH]c1C1CCCN(C(=O)c2noc(C)c2Cn2cccn2)C1 (stereo not given) ; yields the recorded call
Ans. inactive

Qu. What classification did O=C(NCc1ccc(Cl)nc1)c1cn2c(n1)CN([S+](=O)([O-])c1cccc(C(F)(F)F)c1)CC2 end up with in this test?
Ans. inactive

Qu. What did this assay record as the result for CCn1cc(CN2CCOc3ccc(C(=O)NCc4ccccc4F)cc3C2)cn1 ?
Ans. inactive

Qu. Could you check what this test reported for O=C(NC1CCN(C(=O)N2CC3CC(C2)[C@H]2CCCC(=O)N2C3)CC1)c1ccsc1 (stereo not given in full) ?
Ans. inactive

Qu. Just curious, what result did CC(C)c1ccc(N2C(=O)N[C@@H]3CCN(C(=O)c4ccc(C(C)(C)C)cc4)[C@@H]3C2=O)cc1 get here?
Ans. active

Qu. Would you mind telling me which call this test gave Cc1nc(-c2ccccc2OC2CN(S(=O)(=O)c3c(C)noc3C)C2)no1 ?
Ans. inactive

Qu. Each molecule tested received a call. Report the one for COc1ccccc1-c1onc(C)c1C(=O)NCCC(c1ccccc1)c1ccccc1 .
Ans. active

Qu. Dear all, I need the recorded test outcome for O=C(Cc1cccnc1)NC1CC(=O)N(Cc2cccc3ccccc23)C1 (stereo not given) , thank you.
Ans. inactive

Qu. Which outcome was entered for the molecule COC(=O)[C@@H]1Cc2ncn(Cc3ccc(Cl)cc3)c2CN1S(=O)(=O)c1ccc(C(C)=O)cc1 in this test?
Ans. inactive
